B1: TPR 5TU (parent)
chain: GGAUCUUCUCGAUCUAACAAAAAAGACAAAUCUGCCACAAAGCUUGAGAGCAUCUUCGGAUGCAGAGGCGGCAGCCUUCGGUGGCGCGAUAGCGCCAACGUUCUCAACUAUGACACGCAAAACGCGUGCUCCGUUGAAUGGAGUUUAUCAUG

- Variants of: B1
- protocolText: polymerase ribozyme fitness, log enrichment relative to wild type (log ratio); higher = more active; in vitro selection for triplet polymerase activity
Variants at the floor of the assay were thinned out.
quantityName: polymerase ribozyme fitness (log ratio)
Would you mind answering with just the numeric figure?

Guide cases for polymerase ribozyme fitness (log ratio), answers given:
Task: Dear colleague, I am looking for the recorded polymerase ribozyme fitness (log ratio) of the following variant: U56A C72U C76U C85U
Result: -1.17

Task: What value of polymerase ribozyme fitness (log ratio) has been reported for the following variant? U31C G83C U111C G152A
Result: -3.66

Task: I have this variant here, C93A G124C , and I need its recorded polymerase ribozyme fitness (log ratio).
Result: -2.88

Task: Look up polymerase ribozyme fitness (log ratio) for this variant: C85A C118G
Result: -0.907

Task: Which value of polymerase ribozyme fitness (log ratio) has been reported for G58A C85U A106G in the records?
Result: -0.0661

Next:
Task: Returns the measured polymerase ribozyme fitness (log ratio) for the input variant. Input: U82C A115G A138U
Result: -4.19

Task: Query: polymerase ribozyme fitness (log ratio); subject: G94A
Result: -0.622

Task: # query: polymerase ribozyme fitness (log ratio) of entry U55G G86U A89G A121C A147U
Result: -3

Task: # polymerase ribozyme fitness (log ratio) lookup, item C75U G92C U109A U146G
Result: -3.93

Task: Need polymerase ribozyme fitness (log ratio), item A37C U55A
Result: 0.0873
